Test system: Malme-3M
EXPERIMENTAL PROTOCOL: NCI tumour cell line growth inhibition, 48 h
The source made the active and inactive calls. Rule as the data show it: active = GI50 up to about 1.1 µM and inactive = higher.
Just give me one of these, please: active, inactive

- COMPOUND: "CCCCCCCCCCCc1c(O)c(=O)c2c(oc3c(=O)c(CCCCCCCCCCC)c(O)c(=O)c3n2-c2ccc(N(C)C)cc2)c1=O"
  ASSIGNED CLASS: "inactive"
- COMPOUND: "Cc1ccc(N(C)S(=O)(=O)c2ccccc2[N+](=O)[O-])cc1"
  ASSIGNED CLASS: "inactive"
- COMPOUND: "CC[C@@H]1CN2CCC1C[C@@H]2C(O)c1ccnc2ccc(OCCN3CCN(CCOc4ccc5nccc(C(O)[C@@H]6C[C@@H]7CCN6C[C@@H]7CC)c5c4)CC3)cc12 (some centres undefined)"
  ASSIGNED CLASS: "inactive"

Now look at this one.
Outcome logged for `CSc1cc(-c2ccccn2)nc(-c2ccccn2)c1` in this assay:
active

====

Tested on: UACC-257
EXPERIMENTAL PROTOCOL: NCI tumour cell line growth inhibition, 48 h
Calls of active or inactive are those of the source. Cut-off read from the data, not from the text of the source: active = GI50 up to about 1.1 µM and inactive = higher.
GI50 values, listed per item

- MOLECULE: "O=C(O)CCSC(CC1(c2ccc(Cl)cc2)NC(=O)CCS1)c1ccccc1 (stereo not given)"
  MEASURED METRIC: "GI50"
  VALUE OBSERVED: "21.9 µM (inactive)"
- MOLECULE: "COC12OC3(C4OC41)C(C(=O)O[C@H]3CO[Si](C)(C)C(C)(C)C)C2S(=O)(=O)c1ccccc1 (stereo not given in full)"
  MEASURED METRIC: "GI50"
  VALUE OBSERVED: "> 4.65 µM (inactive)"
- MOLECULE: "O=C(Nc1cc(Cl)c(Cl)cc1Cl)C(=O)C(C(=O)c1ccccc1)C1OC(=O)c2ccccc21 (stereo not given)"
  MEASURED METRIC: "GI50"
  VALUE OBSERVED: "> 100 µM (inactive)"

Short answer for `O=c1c(Sc2c(O)c3ccccc3c3ccccc3c2=O)c(O)c2ccccc2c2ccccc12` : GI50 was 41.9 µM (inactive)

# GI50 (molecule: `Cc1ccc(/C=N/Nc2cnccn2)s1` ) is > 100 µM (inactive)

Field GI50 (entry `CCOC(=O)CCNC(=O)c1cc(C)cc2c1Oc1c(cc(C)cc1C(=O)NCCC(=O)OCC)S2` ) reads 79.6 µM (inactive)

Lab book: GI50 of O=C(Nc1nnc(-c2ccc(Cl)cc2)o1)C(SC(=S)N1CCOCC1)c1ccccc1 (stereo not given) noted as 33 µM (inactive)

Please fill in: GI50 reported for `CCSC1=C(C)N(/C=N/C(C)(C)C)CC1` = > 100 µM (inactive)

In plain terms, `C#CC(O)(c1nc2ccccc2s1)c1nc2ccccc2s1` has a documented GI50 of 25.1 µM (inactive)

According to the records, this molecule `CCOC(=O)CCCc1cc(O)c2c(C)c3[nH]c4ccc(Cl)cc4c3c(C)c2n1` displays GI50 of 43.2 µM (inactive)

====

Test system: NCI/ADR-RES
EXPERIMENTAL PROTOCOL: NCI tumour cell line growth inhibition, 48 h
Activity calls are given as the source filed them. No stated cut-off is given here; in the data, active = GI50 up to about 1.1 µM and inactive = higher.
MEASURED METRIC: GI50

- COMPOUND: "N#Cc1nc(-c2cccs2)oc1N"
  GI50: "> 100 µM (inactive)"

Let us examine a further case.
get_value(item= CC1(CC(=O)O)OC2CCCCCC2O1.NCc1ccccc1 (stereo unspecified) , readout=GI50) returns > 100 µM (inactive)

====

Tested on: HOP-92
EXPERIMENTAL PROTOCOL: NCI tumour cell line growth inhibition, 48 h
Where a name gives a salt, the structure may show the parent alone. The source made the active and inactive calls. Cut-off read from the data, not from the text of the source: active = GI50 up to about 1.1 µM and inactive = higher.
Measured GI50 by item

- MOLECULE: "COc1ccc(C2SCC(=O)N2NC(=O)C(C)Oc2ccccc2C)cc1 (centres undefined)"
  GI50: "29.2 µM (inactive)"
- MOLECULE: "Cc1cc(S(=O)(=O)Nc2nc3ccccc3[nH]2)c(S)cc1Cl"
  GI50: "62.5 µM (inactive)"
- MOLECULE: "COC(=O)C(CSSC[C@H](N/C(C)=C/C(C)=O)C(=O)OC)N/C(C)=C/C(C)=O (some centres undefined)"
  GI50: "32.5 µM (inactive)"
- MOLECULE: "N#Cc1ccc(-n2c3ccccc3c3ccc4c(c32)C(=O)C=CC4=O)cc1"
  GI50: "1.52 µM (inactive)"
- MOLECULE: "N#CC1(N2CCCC2)CCC2(CC1)OCCO2"
  GI50: "> 100 µM (inactive)"
- MOLECULE: "Cc1ccc2c3c1O[C@H]1c4[nH]c5ccccc5c4C[C@@]4(O)[C@@H](C2)N(C)CC[C@]314"
  GI50: "9.08 µM (inactive)"

Reported GI50 (HOP-92) for entry `O=C(Cn1nnc(-c2ccccc2)n1)N/N=C/c1cn(Cc2ccc(Cl)cc2Cl)c2ccccc12` is > 100 µM (inactive)

Response field GI50 (HOP-92) for item CC1=NCCc2c1[nH]c1cc(O)ccc21 [HARMALOL HYDROCHLORIDE] : > 100 µM (inactive)

HOP-92 data for COC(=O)C1=C(O)C(C(=O)OC)[C@]2(O)[C@H](C(=O)OC)[C@H]1C[C@@H](c1ccc(OC)cc1)[C@H]2C(=O)OC (some centres undefined) ; its GI50: 59.7 µM (inactive)

====

Tested on: HCC 2998
EXPERIMENTAL PROTOCOL: NCI tumour cell line growth inhibition, 48 h
The source made the active and inactive calls. Cut-off read from the data, not from the text of the source: active = GI50 up to about 1.1 µM and inactive = higher.
MEASURED METRIC: GI50

Some compounds with known GI50 results, for comparison:
- COMPOUND: "Oc1cc(Cl)cc2cc(Cl)cnc12"
  GI50: "25.1 µM (inactive)"
- COMPOUND: "COc1ccc(N2C(=O)CC(Cl)C2=O)cc1 (centres undefined)"
  GI50: "20.4 µM (inactive)"
- COMPOUND: "CN(C)CC1CCCCCCCCCCC1=O (centres undefined)"
  GI50: "> 10 µM (inactive)"
- COMPOUND: "COC(=O)C1CCC(=S)N1C(=O)OCc1ccccc1 (centres undefined)"
  GI50: "62.1 µM (inactive)"

Looking up `CC(C)(C)NC(=O)/C(=C\Sc1ccccc1)c1ccc2c(c1)OCO2` , I see its GI50 listed as 37.3 µM (inactive)

// field: GI50; key: Clc1ccc(C2SCc3nc4ccccc4n32)c(Cl)c1 (centres undefined) ; value = 14.6 µM (inactive)

Query `CCOC(=O)c1nnc2c(C#N)c(-c3ccccc3)c(C)n2c1N` yields GI50 of 32.5 µM (inactive)

====

Tested on: HOP-92
EXPERIMENTAL PROTOCOL: NCI tumour cell line growth inhibition, 48 h
Active and inactive are the calls of the source. No stated cut-off is given here; in the data, active = GI50 up to about 1.1 µM and inactive = higher.
MEASURED METRIC: GI50

Below: 10 compounds and their reported GI50.
- COMPOUND: "CS(=O)(=O)Sc1ccc(Cl)cc1"
  VALUE OBSERVED: "7.11 µM (inactive)"
- COMPOUND: "COc1ccc(/C=C/c2sc3ccccc3[n+]2CCCCI)cc1OC"
  VALUE OBSERVED: "9.53 µM (inactive)"
- COMPOUND: "CCOC1=C2N=C(Cc3ccccc3F)N=C2C(=O)c2ccccc21"
  VALUE OBSERVED: "> 100 µM (inactive)"
- COMPOUND: "COC(=O)C1=C(C(=O)OC)C2(CCCCCC2=O)OC1=O (stereo unspecified)"
  VALUE OBSERVED: "> 100 µM (inactive)"
- COMPOUND: "Clc1ccc(/N=N/c2nc3ccccc3nc2/N=N/c2ccc(Cl)cc2Cl)c(Cl)c1"
  VALUE OBSERVED: "44 µM (inactive)"
- COMPOUND: "c1ccc(C2=Nc3cccc4cccc(c34)N2)cc1"
  VALUE OBSERVED: "24.4 µM (inactive)"
- COMPOUND: "C/C(=N\\NC(=O)CC#N)c1c(O)cc(C)oc1=O"
  VALUE OBSERVED: "> 100 µM (inactive)"
- COMPOUND: "CCOC1OC(CO[Si](C)(C)C(C)(C)C)C(O)CC1n1ccc(=O)[nH]c1=O (stereo unspecified)"
  VALUE OBSERVED: "85.7 µM (inactive)"
- COMPOUND: "Cc1[nH]c2ncn(/N=C/c3ccccc3)c(=N)c2c1Cc1ccccc1"
  VALUE OBSERVED: "42.4 µM (inactive)"
- COMPOUND: "c1ccc(COCC23CCN(Cc4ccccc4)C(CC(OCc4ccccc4)C2)S3)cc1 (stereo unspecified)"
  VALUE OBSERVED: "20.3 µM (inactive)"

// `Cc1cc2c(cc1C)C(=O)/C(=C/c1ccccc1C(=O)O)C2` : GI50 value = 33.3 µM (inactive)

What the record says about `CN(C)/N=N/c1c[nH]nc1C(N)=O` : GI50 is > 100 µM (inactive)

Record `COC(=O)c1ccc2c(c1)CC1(C2)Cc2cc3c(cc2C1)CCC3` . Reported GI50: > 100 µM (inactive)
